Parameter melting point: see the listing below.

The following compounds have reported results that may help.
{"columns": ["compound", "melting point"],
 "data": [
  ["COc1cc(-n2ccnc(SCCc3ccccc3)c2=O)ccc1NC(=O)CN1CCCC1 [6-18]", "> 300 °C"],
  ["CNC1CCN(c2ccc(-n3ccnc(SCCc4ccccc4)c3=O)cc2OC)C1 (stereo not drawn) [6-04]", "113.2 °C"]
]}

In the following, a different compound is considered.
Query block: Look up and report measured melting point for this entry: COc1cc(-n2ccnc(NCCc3ccccc3)c2=O)ccc1OCCN1CCCC1 [2-04]
Result block: 101.1 °C

###

study_system: human MCH-1 receptor (Homo sapiens, UniProt Q99705)
Construct: expressed in transfected cells
Sequence (Q99705 whole entry): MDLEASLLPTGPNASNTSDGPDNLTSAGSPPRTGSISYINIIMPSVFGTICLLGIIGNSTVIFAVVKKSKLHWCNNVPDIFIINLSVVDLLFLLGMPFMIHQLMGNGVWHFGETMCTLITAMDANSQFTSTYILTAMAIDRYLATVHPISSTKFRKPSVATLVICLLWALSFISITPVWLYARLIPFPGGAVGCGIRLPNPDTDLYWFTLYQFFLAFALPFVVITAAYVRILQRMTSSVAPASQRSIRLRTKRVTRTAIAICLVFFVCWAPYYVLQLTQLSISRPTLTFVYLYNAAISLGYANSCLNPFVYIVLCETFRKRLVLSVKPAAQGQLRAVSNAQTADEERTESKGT
assay_explanation: Ca2+ mobilization experiment for the MCH-1 receptor (FLIPR), inhibition of MCH-induced Ca2+ mobilization
Assay type: cell-based
condition_notes: CHO cells stably expressing human MCH-1 receptor, inhibition of MCH-induced Ca2+ response, read-out: MCH-1 pIC50 (converted)
result_type: IC50 (nM)
Number in nM, nothing else.

The following molecules have reported results that may help.
{"columns": ["molecule", "unit_spec", "IC50"],
 "data": [
  ["COc1cc(-n2ccnc(NCCOc3ccccc3)c2=O)ccc1OCCN1CCC(F)CC1 [1-70]", "nM", 12.6],
  ["CNC1CCN(c2ccc(-n3ccnc(SCCc4ccccc4)c3=O)cc2OC)C1 (stereo not shown)", "nM", 25.1],
  ["CN1CCN(CCOc2ccc(-n3ccnc(NCCc4ccccc4)c3=O)cc2Cl)CC1", "nM", 50.1]
]}

Query block: Look up and report measured IC50 for this entry: COc1cc(-n2ccnc(NCCOc3ccc(Cl)cc3Cl)c2=O)ccc1OCCN1CCCC1
Result block: 200

Query block: Look up and report measured IC50 for this entry: COc1cc(-n2ccnc(NCCOc3ccccc3)c2=O)ccc1OCCCN1CCCCC1
Result block: 50.1

Query block: Look up and report measured IC50 for this entry: O=c1c(NCCc2ccccc2)nccn1-c1ccc(OCCN2CCCC2)c(Cl)c1
Result block: 31.6

Query block: Look up and report measured IC50 for this entry: COc1cc(-n2ccnc(CCCc3ccccc3)c2=O)ccc1OCCN1CCCC1
Result block: 126

Query block: Look up and report measured IC50 for this entry: COc1cc(-n2ccnc(SCCc3ccccc3)c2=O)ccc1N1CCC(N(C)C)C1 (stereo not shown)
Result block: 20

###

Parameter IC50: see the listing below.
study_system: human MCH-1 receptor (Homo sapiens, UniProt Q99705)
Construct: expressed in transfected cells
assay_explanation: Ca2+ mobilization experiment for the MCH-1 receptor (FLIPR), inhibition of MCH-induced Ca2+ mobilization
Type: cell-based
condition_notes: CHO cells stably expressing human MCH-1 receptor, inhibition of MCH-induced Ca2+ response, read-out: MCH-1 pIC50 (converted)
Number in nM, nothing else.

The following compounds have reported results that may help.
{"columns": ["compound", "result_type", "unit_spec", "val"],
 "data": [
  ["COc1cc(-n2ccnc(NCCc3ccccc3)c2=O)ccc1N1CCC(N(C)C2CC2)C1 (stereo not drawn)", "IC50", "nM", 79.4],
  ["COc1cc(-n2ccnc(NCCOc3ccccc3)c2=O)ccc1OCCCN1CCOCC1", "IC50", "nM", 63.1]
]}

Query block: Look up and report measured IC50 for this entry: COc1cc(-n2ccnc(NCCc3ccccc3)c2=O)ccc1NC1CC2COCC(C1)N2 (stereo not drawn)
Result block: 79.4

###

study_system: human MCH-1 receptor (Homo sapiens, UniProt Q99705)
Construct: expressed in transfected cells
assay_explanation: Ca2+ mobilization experiment for the MCH-1 receptor (FLIPR), inhibition of MCH-induced Ca2+ mobilization
Assay type: cell-based
condition_notes: CHO cells stably expressing human MCH-1 receptor, inhibition of MCH-induced Ca2+ response, read-out: MCH-1 pIC50 (converted)
Procedure: The interaction of the compounds of Formula (I) with MCH-1 receptors was assessed in in vitro transient calcium (Ca^2+) mobilization assays in the fluorimetric imaging plate reader (FLIPR) format (Sullivan et al. 1999, Methods Mol Biol 114:125-133). […] The interaction of the test compounds with the receptor is assessed in competition experiments. […] Data from assays in the presence of compound were calculated as a percentage of total Ca^2+-responses measured in the absence of test compound. […]
result_type: IC50 (nM)
Number in nM, nothing else.

The following molecules have reported results that may help.
{"columns": ["molecule", "unit_spec", "val"],
 "data": [
  ["COc1cc(-n2ccnc(NCCc3ccccc3)c2=O)ccc1C=CCN1CCCC1 [3-22]", "nM", 31.6],
  ["COc1cc(-n2ccnc(NCCc3ccccc3)c2=O)ccc1OCCN1CC[C@@H](F)C1 [3-47]", "nM", 63.1],
  ["COc1cc(-n2ccnc(SCCc3ccccc3)c2=O)ccc1N1CCOCC1 [6-10]", "nM", 63.1],
  ["O=c1c(NCCc2ccccc2)nccn1CCc1ccc(CN2CCOCC2)cc1 [9-02]", "nM", 39.8],
  ["COc1cc(-n2ccnc(NCCc3ccccc3)c2=O)ccc1NCCN1CCOCC1 [3-29]", "nM", 63.1],
  ["COc1cc(-n2ccnc(NCCc3ccccc3)c2=O)ccc1OCCN1CC[C@H](F)C1 [3-46]", "nM", 50.1],
  ["Cc1cc(-n2ccnc(NCCOc3ccccc3)c2=O)ccc1OCCN1CCCC1 [1-48]", "nM", 50.1]
]}

Query block: Look up and report measured IC50 for this entry: CCCN(C)C1CCN(c2ccc(-n3ccnc(NCCc4ccccc4)c3=O)cc2OC)C1 (centres unmarked) [3-15]
Result block: 50.1
